B1: MFF (parent)
chain: DDLTVVDAASLRRQIIKLNRRLQL

variants of: B1; assay: protein stability index of a GFP-peptide fusion (GPS, HEK-293T) (PSI 1-6); higher = more stable; settings: c terminus: a fixed tail appended;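 also: lentivirally expressed fusions sorted by FACS into six bins by GFP to DsRed ratio, PSI derived from sequencing read proportions per bin multiplied by bin number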
I'd appreciate it if you could supply protein stability index values for the items below.
One number for each entry.

Field: example entries. Status: answers known.
R12V
2.06
A9E
2.13
D2L
1.24
L18A
1.86
L24H
2.21

Report protein stability index for each item below.
1. S10Y
2. S10P
3. I16T
4. R12F
5. L18D
6. V6I
7. Q23T
8. N19C

1. 1.69
2. 2.89
3. 1.92
4. 1.99
5. 4.13
6. 1.55
7. 2.08
8. 3.04
